Assayed target: T1, biotinylated native human ApoC3 (human, UniProt P02656 21-99, biotinylated (site not stated))
T1 construct: also called biotinylated human ApoC3
T1 sequence (P02656 21-99): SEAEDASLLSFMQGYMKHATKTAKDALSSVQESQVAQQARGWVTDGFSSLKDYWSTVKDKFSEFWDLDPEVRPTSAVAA
Assay remarks: SPR, IgG1 over biotinylated ApoC3 on SA chip
Quantity kind: KD pH5.5/KD pH7.4
Answer using only a numeral; do not append any unit.

[
  {
    "Binder": "mAb16 (antibody, IgG1, V domains shown, Produced as full length IgG1 (kappa) in ExpiCHO-S cells; also called humanized anti-ApoC3 antibody mAb16) VH: QLVESGGGLVQPGGSLRLSCAASGFTFGTYSMRWVRQAPGKGLEWVSSIHTEAGGTAYRDSVKGRFTISRDNAKNTLYLQMNNLKAEDTAIYYCVIAGYSDWGQGTQVTVSS VL: DIVMTQSPLSLPVTPGESASISCKTSQGLVHSGGKTYFYWFLQKPGQSPQQLIYQVSNRASGVPDRFTGSGSGTDFTLKISRVEAEDAGVYYCAHGTYYPHTFGSGTRLEIK",
    "KD pH5.5/KD pH7.4": 10.8
  },
  {
    "Binder": "mAb10 (antibody, IgG1, V domains shown, Produced as full length IgG1 (kappa) in ExpiCHO-S cells; also called humanized anti-ApoC3 antibody mAb10) VH: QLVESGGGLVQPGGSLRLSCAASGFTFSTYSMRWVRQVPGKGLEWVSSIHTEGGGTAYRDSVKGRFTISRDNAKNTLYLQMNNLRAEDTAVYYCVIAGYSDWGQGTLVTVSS VL: DIVMTQSPLSLSVVPGEPASISCKTSQGLVHSDGKTYFYWFLQKPGQSPQQLIYQVSNRASGVPDRFSGSGSGTDFTLKISRVEAEDVGVYYCAHGTYYPHTFGQGTRLEIK",
    "KD pH5.5/KD pH7.4": 2.82
  }
]

Turning now to a further record.
Recorded KD pH5.5/KD pH7.4 of 5E5VH12_VLWT human IgG1 (antibody, V domains shown) VH: QLQLVESGGGLVQPGGSLRLSCAASGFTFGTYSMRWVRQVPRKALEWVSSISTDGGGTAYRDSVKGRFTISRDNAKNTLYLQMNNLKPEDTAIYYCVIHGYSDWGQGTQVTVSS VL: ATMLTQSPGSLSVVPGESASISCKTSQGLVHSDGKTYFYWFLQKPGQSPQQLIYQVSNRASGVPDRFTGSGSGTDFTLKISGVKAEDAGVYYCAQGTYYPHTFGSGTRLEIK , please. 27.6
